# Protocol Description: Cmax in rat at 15 mg/kg, ip measured after 8 hrs
# Type: ADME, organism-based
# Design: time 8 hrs, dose 15 mg/kg, route ip
# Experimental Setup: in vivo
Parameter: Cmax

[
  {
    "Molecule": "COc1c(C)cnc(Cn2cc(C#CCCNc3cccc4c3C(=O)N(C3CCC(=O)NC3=O)C4=O)c3c(Cl)nc(N)nc32)c1C (stereo unspecified)",
    "Parameter": "Cmax",
    "Observed": "260 ng/mL"
  }
]

----------
# Protocol Description: AUC in rat at 15 mg/kg, ip measured after 8 hrs
# Format: ADME, organism-based
# Set-up: dose 15 mg/kg, time 8 hrs, route ip
# Experimental Setup: in vivo
Parameter: AUC (ng·h/mL)

[
  {
    "Compound": "COc1c(C)cnc(Cn2cc(C#CCCNc3cccc4c3C(=O)N(C3CCC(=O)NC3=O)C4=O)c3c(Cl)nc(N)nc32)c1C (stereo unspecified)",
    "Observed": 1360
  }
]

Where do the numbers come from? From ChEMBL document CHEMBL5154662.
